Data provenance is ChEMBL document CHEMBL1201862.

TARGET UNDER TEST: Endoribonuclease toxin MazF (Escherichia coli K-12, UniProt P0AE70)
ASSAY SUMMARY: activation of MazEF endoribonuclease cleavage – biochemical, fluorescence, single-stranded RNA substrate, uHTS hits, dose response (AID 588481)
Assay type: functional
Calls of active or inactive are those of the source.
# EC50 annotations

Could you tell me which EC50 is on file for `COc1ccccc1Nc1nc2c(C)cccc2cc1C#N` ? > 99 µM (inactive)

Could you tell me which EC50 is on file for `O=[N+]([O-])c1ccc(NN=Cc2ccc3c(c2)OCO3)nc1` ? 40.5 µM (inactive)

Could you tell me which EC50 is on file for `O=C(Nc1ncccn1)c1ccc([N+](=O)[O-])o1` ? > 99 µM (inactive)

Could you tell me which EC50 is on file for `COc1ccc(CN2C(=O)NC(=O)/C(=C/c3ccc[nH]3)C2=O)cc1` ? > 99 µM (inactive)

Could you tell me which EC50 is on file for `CC(C)(C)OC(=O)N/N=C/c1ccc(N2CCOCC2)s1` ? > 99 µM (inactive)

Could you tell me which EC50 is on file for `COc1ccc(/C=C/c2cc(=O)c3cc(Cl)ccc3o2)cc1` ? > 99 µM (inactive)

Could you tell me which EC50 is on file for `COC(=O)Cn1cc(/C=C2\C(=O)NC(=O)N(c3ccc(OC)cc3)C2=O)c2ccccc21` ? > 99 µM (inactive)

Could you tell me which EC50 is on file for `Cc1ccc(N=Nc2c(O)n(CN3CCOCC3)c3ccccc23)cc1` ? 39.4 µM (inactive)

----------
TARGET UNDER TEST: Heat shock protein HSP 90-alpha (Homo sapiens, UniProt P07900)
Assay type: functional, organism-based
Calls of active or inactive are those of the source.
METRIC NAME: AC50

Please review the entries below; each comes with its answer.
CC1(C)N=C(SCC(=O)Nc2ccc(Cl)cc2)C(c2ccc(Cl)cc2)=N1
11300 nM (active)
Cc1ccc(C(c2cc(Cl)c3cccnc3c2O)N2CCN(C)CC2)cc1 (stereo not drawn)
1590 nM (active)
O=[N+]([O-])c1c(Nc2ccccn2)cc(Cl)c2nonc12
1930 nM (active)
C/C(=N\Nc1ncc(Cl)cc1Cl)c1ccccn1
1840 nM (active)
COc1ccccc1C(=O)Nc1nc2ccccc2[nH]1
555 nM (active)

Could you tell me which AC50 is on file for `COc1ccc(NC(=O)c2cc([N+](=O)[O-])ccc2O)cc1` ? 3370 nM (active)

Could you tell me which AC50 is on file for `Cc1c(C(=O)N(Cc2ccccc2)Cc2cccs2)cnn1-c1ccc(Cl)cc1` ? 3440 nM (active)

Could you tell me which AC50 is on file for `Cn1c(SCC(=O)N/N=C/c2ccc([N+](=O)[O-])s2)nnc1-c1ccc(Cl)cc1` ? 2550 nM (active)

----------
TARGET UNDER TEST: RNA-binding protein pos-1 (Caenorhabditis elegans, UniProt G5EF15)
Sequence (G5EF15 whole entry, the tested form may be a part): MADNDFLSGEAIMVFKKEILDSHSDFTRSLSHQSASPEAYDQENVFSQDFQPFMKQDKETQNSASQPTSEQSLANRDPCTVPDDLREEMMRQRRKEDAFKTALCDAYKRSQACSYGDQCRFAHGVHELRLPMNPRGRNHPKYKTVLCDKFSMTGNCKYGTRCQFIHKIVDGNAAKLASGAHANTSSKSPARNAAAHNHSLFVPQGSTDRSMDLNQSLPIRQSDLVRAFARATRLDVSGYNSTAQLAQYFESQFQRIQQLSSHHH
ASSAY SUMMARY: disruptors of C. elegans POS-1 RNA interaction – biochemical, fluorescence polarization, dose response (AID 1964);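 note: purified POS-1 fused to maltose binding protein made in E. coli; potency of compounds blocking POS-1 binding to fluorescent RNA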
Activity calls are given as the source filed them.
METRIC NAME: EC50

Please review the entries below; each comes with its answer.
CC(=O)c1c(O)cc(O)cc1CC(=O)O
> 300 µM (inconclusive)
COC(=O)CNc1cccc(C(F)(F)F)c1
> 300 µM (not active)
CC1=C(C#N)C(=O)N(C)C(=O)/C1=C\NNc1ccc(F)cc1
> 300 µM (not active)

Could you tell me which EC50 is on file for COc1cc(C(CC(=O)N2CCCC2)c2c(OC)cc(OC)c3ccc(=O)oc23)cc(OC)c1OC (centres undefined) ? 8.14 µM (inconclusive)

Could you tell me which EC50 is on file for `CCN(CC)c1ccc(N/C=C2\C(=O)NC(=O)N(c3cc(OC)ccc3OC)C2=O)cc1` ? > 300 µM (not active)

Could you tell me which EC50 is on file for N#CC1=C(N)OC2=C(C(=O)CC(c3ccco3)C2)C1c1ccc(OCc2c(F)cccc2Cl)cc1 (centres undefined) ? > 300 µM (not active)

Could you tell me which EC50 is on file for CCOP(=O)(OCC)C(Nc1cccc([N+](=O)[O-])c1)c1ccccc1 (centres undefined) ? > 300 µM (not active)

Could you tell me which EC50 is on file for `Cc1ccccc1NC(=O)CN1C(=O)S/C(=C\c2ccc(-c3cc(C(=O)O)ccc3C)o2)C1=O` ? 2.41 µM (active)

----------
TARGET UNDER TEST: Fatty acid synthase (Homo sapiens, UniProt P49327)
Sequence (P49327 whole entry): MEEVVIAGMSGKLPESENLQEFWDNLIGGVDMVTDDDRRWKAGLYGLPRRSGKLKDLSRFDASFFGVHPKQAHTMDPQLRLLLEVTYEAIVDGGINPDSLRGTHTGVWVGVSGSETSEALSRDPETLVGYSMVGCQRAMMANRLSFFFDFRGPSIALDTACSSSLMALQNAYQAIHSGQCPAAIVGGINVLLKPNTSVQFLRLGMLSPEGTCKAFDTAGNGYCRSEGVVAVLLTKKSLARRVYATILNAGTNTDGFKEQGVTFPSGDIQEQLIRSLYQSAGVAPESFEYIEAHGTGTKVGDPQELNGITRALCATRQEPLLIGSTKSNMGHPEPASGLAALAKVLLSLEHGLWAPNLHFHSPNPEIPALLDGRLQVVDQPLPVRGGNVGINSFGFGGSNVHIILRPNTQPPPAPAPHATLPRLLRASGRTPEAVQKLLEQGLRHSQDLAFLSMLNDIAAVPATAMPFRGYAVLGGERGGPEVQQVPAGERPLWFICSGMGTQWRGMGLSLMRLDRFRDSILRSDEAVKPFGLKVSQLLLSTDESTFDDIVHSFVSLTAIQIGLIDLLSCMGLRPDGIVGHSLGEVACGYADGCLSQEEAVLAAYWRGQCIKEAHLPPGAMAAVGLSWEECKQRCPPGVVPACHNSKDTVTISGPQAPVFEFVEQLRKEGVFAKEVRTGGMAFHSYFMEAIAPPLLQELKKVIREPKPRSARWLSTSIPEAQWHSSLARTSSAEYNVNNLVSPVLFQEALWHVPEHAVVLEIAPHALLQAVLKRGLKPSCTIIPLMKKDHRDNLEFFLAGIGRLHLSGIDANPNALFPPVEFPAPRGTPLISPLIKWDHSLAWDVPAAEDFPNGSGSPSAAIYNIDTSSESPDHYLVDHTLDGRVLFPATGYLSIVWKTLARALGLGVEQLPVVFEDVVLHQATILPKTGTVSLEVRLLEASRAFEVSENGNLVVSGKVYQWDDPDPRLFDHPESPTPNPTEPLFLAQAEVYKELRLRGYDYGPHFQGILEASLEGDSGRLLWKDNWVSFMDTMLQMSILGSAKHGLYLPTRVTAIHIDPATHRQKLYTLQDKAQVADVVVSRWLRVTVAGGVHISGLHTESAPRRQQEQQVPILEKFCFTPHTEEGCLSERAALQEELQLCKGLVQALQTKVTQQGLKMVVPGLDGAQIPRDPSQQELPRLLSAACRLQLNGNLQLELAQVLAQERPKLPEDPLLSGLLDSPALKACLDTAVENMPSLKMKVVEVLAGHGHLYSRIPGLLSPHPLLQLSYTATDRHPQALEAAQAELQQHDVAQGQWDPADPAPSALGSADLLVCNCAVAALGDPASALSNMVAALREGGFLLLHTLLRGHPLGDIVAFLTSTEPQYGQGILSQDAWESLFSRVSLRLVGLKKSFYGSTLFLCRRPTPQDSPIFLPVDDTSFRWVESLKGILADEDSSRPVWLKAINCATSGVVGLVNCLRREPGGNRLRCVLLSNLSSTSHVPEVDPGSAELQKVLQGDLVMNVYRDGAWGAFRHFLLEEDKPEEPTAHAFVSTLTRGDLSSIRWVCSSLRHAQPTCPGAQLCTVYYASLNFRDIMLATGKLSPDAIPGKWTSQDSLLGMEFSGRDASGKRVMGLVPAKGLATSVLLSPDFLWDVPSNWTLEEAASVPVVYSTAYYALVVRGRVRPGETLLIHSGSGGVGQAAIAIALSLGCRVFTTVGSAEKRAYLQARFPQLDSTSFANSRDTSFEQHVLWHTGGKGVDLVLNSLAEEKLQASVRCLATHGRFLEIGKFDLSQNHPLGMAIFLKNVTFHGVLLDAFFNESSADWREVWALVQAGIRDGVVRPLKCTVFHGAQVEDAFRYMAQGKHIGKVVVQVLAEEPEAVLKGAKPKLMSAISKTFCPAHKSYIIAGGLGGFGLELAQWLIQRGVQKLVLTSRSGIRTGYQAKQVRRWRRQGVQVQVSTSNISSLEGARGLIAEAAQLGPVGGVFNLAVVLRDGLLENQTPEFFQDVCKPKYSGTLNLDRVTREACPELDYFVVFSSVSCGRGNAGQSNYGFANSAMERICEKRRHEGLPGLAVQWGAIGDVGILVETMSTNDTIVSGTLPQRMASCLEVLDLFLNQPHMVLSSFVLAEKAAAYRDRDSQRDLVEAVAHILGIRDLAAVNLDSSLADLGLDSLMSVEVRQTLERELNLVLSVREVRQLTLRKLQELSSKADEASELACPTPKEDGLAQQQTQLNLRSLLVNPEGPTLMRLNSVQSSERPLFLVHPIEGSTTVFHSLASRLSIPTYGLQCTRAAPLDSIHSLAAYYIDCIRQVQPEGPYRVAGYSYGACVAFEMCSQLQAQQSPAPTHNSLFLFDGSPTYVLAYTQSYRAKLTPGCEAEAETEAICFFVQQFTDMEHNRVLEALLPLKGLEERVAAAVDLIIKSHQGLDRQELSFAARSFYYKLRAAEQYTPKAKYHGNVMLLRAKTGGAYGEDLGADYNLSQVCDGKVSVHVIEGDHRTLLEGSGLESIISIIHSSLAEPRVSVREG
ASSAY SUMMARY: inhibition of human FAS-TE enzyme activity – biochemical, endpoint fluorescence intensity, uHTS hits, dose response (AID 624327);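 note: fluorescence from hydrolysis of an O-methyl fluorescein acyl ester substrate by the enzyme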
Type: functional
Calls of active or inactive are those of the source.
Write down the outcome that applies. Available outcomes: active, inactive

O=C(OCC(=O)N1CCc2ccccc2C1)c1ccc(Cl)c([N+](=O)[O-])c1
active
CC(C)C[C@H](NC(=O)c1[nH]cnc1C(=O)NC1CCN(C(=O)OC(C)(C)C)CC1)C(=O)OCc1ccccc1
active
CC(C)(C)c1ccc(OCCC(=O)OCC(=O)NCc2ccccc2)cc1
active
CC(C)(C)OC(=O)CNC(=O)c1[nH]cnc1C(=O)N[C@@H](CCCCNC(=O)OC(C)(C)C)C(=O)OC(C)(C)C
active
Fc1c(F)c(C(F)(F)F)c(F)c(F)c1N/N=C\c1cccs1
active

Can you look up the reported call for Cc1cc(Br)ccc1NC(=O)C(C)c1ccc([N+](=O)[O-])cc1 (configuration not stated) for me? inactive

Can you look up the reported call for `O=[N+]([O-])c1c(Nc2cccc(O)c2)cc(Cl)c2nonc12` for me? active

----------
TARGET UNDER TEST: Corticotropin-releasing factor receptor 2/Corticotropin-releasing factor-binding protein (Homo sapiens, UniProt P24387+Q13324)
Sequence (Q13324 whole entry): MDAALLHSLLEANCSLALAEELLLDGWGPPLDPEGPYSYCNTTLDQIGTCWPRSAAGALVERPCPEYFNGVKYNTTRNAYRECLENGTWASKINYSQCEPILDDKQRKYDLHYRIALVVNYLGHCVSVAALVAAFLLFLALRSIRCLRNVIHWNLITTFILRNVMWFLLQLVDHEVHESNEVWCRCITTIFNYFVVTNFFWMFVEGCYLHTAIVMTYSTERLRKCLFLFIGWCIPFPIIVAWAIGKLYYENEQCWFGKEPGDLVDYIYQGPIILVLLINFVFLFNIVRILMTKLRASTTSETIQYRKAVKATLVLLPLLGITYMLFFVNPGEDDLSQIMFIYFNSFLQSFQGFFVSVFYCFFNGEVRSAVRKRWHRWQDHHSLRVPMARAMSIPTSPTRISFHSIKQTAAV
Sequence (P24387 whole entry): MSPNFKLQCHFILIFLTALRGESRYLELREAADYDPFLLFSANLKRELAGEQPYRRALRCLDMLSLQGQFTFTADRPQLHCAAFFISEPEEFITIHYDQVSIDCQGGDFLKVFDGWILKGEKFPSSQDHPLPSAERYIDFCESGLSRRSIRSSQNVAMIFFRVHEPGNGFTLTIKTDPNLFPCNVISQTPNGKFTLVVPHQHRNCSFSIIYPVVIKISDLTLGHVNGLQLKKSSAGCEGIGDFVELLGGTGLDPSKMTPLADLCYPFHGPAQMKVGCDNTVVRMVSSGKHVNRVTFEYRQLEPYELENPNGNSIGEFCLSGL
ASSAY SUMMARY: activators of CRF receptor 2 with binding protein – uHTS hits, confirmation (AID 602473)
Type: functional
CONDITION NOTES: read-out: EC50_Mean
Activity calls are given as the source filed them.
Write down the outcome that applies. Available outcomes: active, inactive

Cc1ccc2[nH]c(C(=O)N/N=C/c3ccccc3C(=O)O)c(-c3ccccc3)c2c1
active
COc1ccc(S(=O)(=O)N2CCN(C(=O)CCCN3C(=O)NC4(CCCC4)C3=O)CC2)cc1
inactive
CN(C)c1ccc(C=C2C(=O)OC(C)(C)OC2=O)cc1
inactive
Cc1ccc(C(=O)OCn2nnc3ccccc3c2=O)cc1[N+](=O)[O-]
inactive
CCOC(=O)C1CCCN(C(=O)COC(=O)c2cccs2)C1 (stereo not drawn)
inactive

Can you look up the reported call for `Cc1c(-c2nc[nH]n2)sc(C#N)c1-c1ccccc1` for me? inactive

Can you look up the reported call for `CCCCC[C@@H]1C=C(C(=O)O)[C@H](c2cccc(C)c2)N1S(=O)(=O)c1ccc(C)cc1` for me? active

Can you look up the reported call for O=C(NC1(C(F)(F)F)C(=O)Nc2c1c(=O)[nH]c(=O)n2Cc1ccccc1)c1ccc(Cl)cc1 (stereo not drawn) for me? inactive

Can you look up the reported call for `COc1ccc(CC(=O)N/N=C(\C)c2ccc(Br)s2)cc1` for me? inactive

Can you look up the reported call for `CC(=O)Nc1ccc(Nc2nc3ccccc3nc2NS(=O)(=O)c2ccc(Cl)c([N+](=O)[O-])c2)cc1` for me? inactive

----------
ASSAY SUMMARY: Luminescence Cell-Based Dose Retest to Confirm Inhibitors of Cancer Stem Cells. [Related pubchem assays (depositor defined):AID2717, AID2721]
Type: functional
CONDITION NOTES: Homo sapiens
The source made the active and inactive calls.
METRIC NAME: AC50

Please review the entries below; each comes with its answer.
CCCCC[C@@H]1C=C(C(=O)O)[C@H](c2ccc(Cl)c(Cl)c2)N1S(=O)(=O)c1ccc(C)cc1
4.58 µM (active)
Cc1c(C(=O)N(Cc2ccccc2)Cc2cccs2)cnn1-c1ccc(Cl)cc1
1.77 µM (active)
COC(=O)c1ccc(/C=C/c2c(-c3ccc(OC)cc3)oc3ccccc23)cc1
2.47 µM (active)
Clc1ccc(-c2ccc(/C=N/Nc3cc(N4CCOCC4)nc(N4CCOCC4)n3)o2)cc1
1.73 µM (active)
O=C(c1cc(-c2ccc(O)cc2)on1)N1CCN(c2ccccc2)CC1
2.89 µM (active)

Switching to the query record.
Could you tell me which AC50 is on file for `COc1cc(N/N=C(\C)c2ccc(O)c(C)c2)nc(-c2ccccc2)n1` ? 3.99 µM (active)

----------
TARGET UNDER TEST: Endoribonuclease toxin MazF (Escherichia coli K-12)
Sequence (P0AE70 whole entry): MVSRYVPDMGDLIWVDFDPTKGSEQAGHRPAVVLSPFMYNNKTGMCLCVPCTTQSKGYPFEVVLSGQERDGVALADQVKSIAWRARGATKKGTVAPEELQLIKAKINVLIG
ASSAY SUMMARY: substrate-only fluorescence increase artefacts – biochemical, single-stranded RNase substrate, counter-screen for MazEF activator project, dose response (AID 588502)
Format: functional
Active and inactive are the calls of the source.
Write down the outcome that applies. Available outcomes: yes for active, no for inactive

Previously resolved entries follow.
O=[N+]([O-])c1ccc(NN=Cc2ccc3c(c2)OCO3)nc1
no
Cc1ccc(N=Nc2c(O)n(CN3CCOCC3)c3ccccc23)cc1
no
COc1ccc(CN2C(=O)NC(=O)/C(=C/c3ccc[nH]3)C2=O)cc1
no
O=C(Nc1ncccn1)c1ccc([N+](=O)[O-])o1
no
CC(C)(C)OC(=O)N/N=C/c1ccc(N2CCOCC2)s1
no
COc1ccc(/C=C/c2cc(=O)c3cc(Cl)ccc3o2)cc1
no

Can you look up the reported call for `COC(=O)Cn1cc(/C=C2\C(=O)NC(=O)N(c3ccc(OC)cc3)C2=O)c2ccccc21` for me? no

Can you look up the reported call for `COc1ccccc1Nc1nc2c(C)cccc2cc1C#N` for me? yes
